- assay-system: baNadD (Bacillus anthracis)
- Sequence (C3L5T6 whole entry, looked up): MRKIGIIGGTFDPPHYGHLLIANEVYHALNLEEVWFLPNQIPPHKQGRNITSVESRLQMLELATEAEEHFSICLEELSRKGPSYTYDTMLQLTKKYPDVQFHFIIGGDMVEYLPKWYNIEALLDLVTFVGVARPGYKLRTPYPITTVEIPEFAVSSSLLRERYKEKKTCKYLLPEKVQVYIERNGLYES
- protocol-details: biochemical
- Assay type: biochemical

{"compound": "COc1ccc(N(CC(=O)O)S(=O)(=O)c2ccc(C)cc2)cc1Cl [compound 192]", "[…]. anthracis / %": 0}
{"compound": "O=C(O)CSc1cccc(SCC(=O)O)c1 [compound 293]", "[…]. anthracis / %": 5}
{"compound": "CC(=NNC(=O)CCC(=O)Nc1ccc(Br)cc1)c1ccc2ccccc2c1 [compound 200]", "[…]. anthracis / %": 76}
{"compound": "O=C(O)c1ccc(-n2cccn2)cc1 [compound 141]", "[…]. anthracis / %": 17}
{"compound": "CCS(=O)(=O)CCSc1nc2ccccc2o1 [compound 094]", "[…]. anthracis / %": 0}

* * *

- assay-system: ecNadD (Escherichia coli (strain K12), UniProt P0A752)
- protocol-details: biochemical
- Type: biochemical
// boundary case: […]. coli equal to 1% maps to NOT MET; strictly smaller maps to MET

{"molecule": "O=C(O)c1ccc([N+](=O)[O-])cc1C(=O)Nc1ccc(Cl)cc1 [compound 016]", "assay-system": "ecNadD (Escherichia coli (strain K12), UniProt P0A752)", "discrete-label": "NOT MET"}
{"molecule": "O=C(NCc1ccccn1)c1ccc(Cl)cc1Cl [compound 294]", "assay-system": "ecNadD (Escherichia coli (strain K12), UniProt P0A752)", "discrete-label": "MET"}
{"molecule": "Brc1cnc2nc(/C=C/c3ccccc3)[nH]c2c1 [compound 006]", "assay-system": "ecNadD (Escherichia coli (strain K12), UniProt P0A752)", "discrete-label": "NOT MET"}
{"molecule": "Nc1nnc(SCc2ccccc2Cl)s1 [compound 104]", "assay-system": "ecNadD (Escherichia coli (strain K12), UniProt P0A752)", "discrete-label": "NOT MET"}
{"molecule": "NS(=O)(=O)c1ccc(CCNC(=O)c2ccc([NH2+][O-])cc2)cc1 [compound 213]", "assay-system": "ecNadD (Escherichia coli (strain K12), UniProt P0A752)", "discrete-label": "MET"}
{"molecule": "O=C(O)c1cc([N+](=O)[O-])ccc1Sc1cccs1 [compound 005]", "assay-system": "ecNadD (Escherichia coli (strain K12), UniProt P0A752)", "discrete-label": "NOT MET"}
{"molecule": "O=C(CSc1nc2ccccc2[nH]1)Nc1nncs1 [compound 197]", "assay-system": "ecNadD (Escherichia coli (strain K12), UniProt P0A752)", "discrete-label": "MET"}
{"molecule": "Nc1nonc1C(=O)NCCNS(=O)(=O)Cc1ccccc1 [compound 051]", "assay-system": "ecNadD (Escherichia coli (strain K12), UniProt P0A752)", "discrete-label": "NOT MET"}
{"molecule": "O=C(O)C1C2C=CC(C2)C1C(=O)Nc1ccc(Cl)c(Cl)c1 (stereo not shown) [compound 152]", "assay-system": "ecNadD (Escherichia coli (strain K12), UniProt P0A752)", "discrete-label": "NOT MET"}

* * *

- assay-system: ecNadD (Escherichia coli (strain K12), UniProt P0A752)
- protocol-details: biochemical
- Assay type: biochemical

{"molecule": "Br.Cn1ccnc1SCC(=O)c1ccccc1", "unit-abbreviation": "%", "[…]. coli": 8}
{"molecule": "CC(=O)c1cccc(NS(=O)(=O)c2cccc(C(=O)O)c2)c1", "unit-abbreviation": "%", "[…]. coli": 0}
{"molecule": "COc1cc(/C=N/c2ccc3[nH]c(=O)[nH]c3c2)ccc1OC(C)=O", "unit-abbreviation": "%", "[…]. coli": 30}
{"molecule": "O=C(O)c1nccnc1C(=O)Nc1ccc(Br)cc1", "unit-abbreviation": "%", "[…]. coli": 21}
{"molecule": "COc1ccc(S(=O)(=O)Nc2ccc(C(N)=O)cc2)cc1Cl", "unit-abbreviation": "%", "[…]. coli": 6}
{"molecule": "O=C(O)CSc1nc2ccccc2n1CC(=O)O", "unit-abbreviation": "%", "[…]. coli": 3}
{"molecule": "O=C(O)/C=C/c1ccncc1", "unit-abbreviation": "%", "[…]. coli": 5}
{"molecule": "O=C(O)CNC(=S)N(Cc1ccccc1)Cc1cccs1", "unit-abbreviation": "%", "[…]. coli": 5}
{"molecule": "NNC(=O)CNC(=O)CNS(=O)(=O)c1ccc(Cl)cc1", "unit-abbreviation": "%", "[…]. coli": 0}
{"molecule": "O=C(Nc1ncccn1)c1sc2ccccc2c1Cl", "unit-abbreviation": "%", "[…]. coli": 31}
{"molecule": "Nc1nnc(-c2cc(-c3ccc(Cl)cc3)on2)o1", "unit-abbreviation": "%", "[…]. coli": 3}
